Each recorded value in this set is attributed to paper PMC10653547.

System: colistin-resistant E. coli clinical isolates
Assay: Disk diffusion antimicrobial susceptibility testing (CLSI)
Format: cell-based, Escherichia coli
Details: EC-09
READOUT_NAME: Interpreted results of disk diffusion

Would you please look over these solved cases?
For CO/N=C(\C(=O)N[C@@H]1C(=O)N2C(C(=O)[O-])=C(C[N+]3(C)CCCC3)CS[C@H]12)c1csc(N)n1 [FEP, cefepime] the compound record lists Interpreted results of disk diffusion as R

For CO[C@@]1(NC(=O)Cc2cccs2)C(=O)N2C(C(=O)O)=C(COC(N)=O)CS[C@@H]21 the compound record lists Interpreted results of disk diffusion as S

For C[C@@H]1O[C@@H]1P(=O)(O)O the compound record lists Interpreted results of disk diffusion as S

For C[C@@H](O)[C@H]1C(=O)N2C(C(=O)O)=C(S[C@@H]3CN[C@H](C(=O)Nc4cccc(C(=O)O)c4)C3)[C@H](C)[C@H]12 the compound record lists Interpreted results of disk diffusion as S

For CNC(C)C1CCC(N)C(OC2C(N)CC(N)C(OC3OCC(C)(O)C(NC)C3O)C2O)O1 (stereo not shown) the compound record lists Interpreted results of disk diffusion as R

Give Interpreted results of disk diffusion for all compounds that follow.
1. O=C(N[C@H](CO)[C@H](O)c1ccc([N+](=O)[O-])cc1)C(Cl)Cl
2. CC(C)(O/N=C(\C(=O)N[C@@H]1C(=O)N2C(C(=O)[O-])=C(C[n+]3ccccc3)CS[C@H]12)c1csc(N)n1)C(=O)O

Result:
R
I
